Source of measurements: ChEMBL document CHEMBL4152254

- System Under Test: Neuronal acetylcholine receptor; alpha4/beta2 (Rattus norvegicus, UniProt P09483+P12390)
- Sequence (P09483 whole entry): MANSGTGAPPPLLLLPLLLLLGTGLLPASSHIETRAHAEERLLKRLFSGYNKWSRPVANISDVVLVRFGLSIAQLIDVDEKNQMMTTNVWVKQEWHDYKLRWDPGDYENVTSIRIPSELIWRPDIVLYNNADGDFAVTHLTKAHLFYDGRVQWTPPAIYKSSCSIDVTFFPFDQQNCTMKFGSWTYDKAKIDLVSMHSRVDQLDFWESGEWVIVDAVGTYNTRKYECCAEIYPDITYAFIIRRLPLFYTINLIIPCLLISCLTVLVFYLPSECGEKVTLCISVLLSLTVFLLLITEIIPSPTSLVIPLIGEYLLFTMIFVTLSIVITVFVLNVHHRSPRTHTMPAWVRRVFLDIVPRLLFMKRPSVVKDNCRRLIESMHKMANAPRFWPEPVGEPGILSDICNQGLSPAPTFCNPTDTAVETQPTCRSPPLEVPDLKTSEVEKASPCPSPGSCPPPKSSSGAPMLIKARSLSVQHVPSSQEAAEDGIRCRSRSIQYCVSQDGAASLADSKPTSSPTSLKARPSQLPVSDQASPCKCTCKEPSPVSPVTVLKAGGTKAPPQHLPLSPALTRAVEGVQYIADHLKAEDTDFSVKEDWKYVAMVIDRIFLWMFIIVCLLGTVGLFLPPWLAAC
- Sequence (P12390 whole entry): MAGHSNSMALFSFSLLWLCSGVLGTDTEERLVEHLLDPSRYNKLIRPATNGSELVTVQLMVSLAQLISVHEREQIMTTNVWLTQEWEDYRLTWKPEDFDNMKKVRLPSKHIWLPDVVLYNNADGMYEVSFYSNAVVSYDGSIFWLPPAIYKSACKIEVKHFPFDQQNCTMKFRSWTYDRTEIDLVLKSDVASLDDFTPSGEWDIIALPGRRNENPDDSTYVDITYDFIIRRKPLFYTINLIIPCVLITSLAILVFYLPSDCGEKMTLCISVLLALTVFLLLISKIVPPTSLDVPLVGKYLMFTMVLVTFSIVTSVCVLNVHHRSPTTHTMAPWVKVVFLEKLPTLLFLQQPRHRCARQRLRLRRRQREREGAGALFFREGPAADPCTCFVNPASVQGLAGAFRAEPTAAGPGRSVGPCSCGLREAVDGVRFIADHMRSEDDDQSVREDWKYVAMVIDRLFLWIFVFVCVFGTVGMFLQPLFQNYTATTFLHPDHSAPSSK
- Measurement Protocol: Displacement of [3H]epibatidine from alpha4beta2 nAChR in rat cortex membranes
Ki strictly under 2 nM means Fulfilled; at 2 nM or over means Not fulfilled.

>>> category_label("Clc1ccc(Nc2cncc(N3CC4CC(C3)N4)c2)cc1Cl")
"Fulfilled"
>>> category_label("Fc1ccc(Nc2ccc(N3CC4CC(C3)N4)cn2)cc1")
"Not fulfilled"
>>> category_label("Clc1cccc(Nc2ccc(N3CC4CC(C3)N4)cn2)c1")
"Not fulfilled"
>>> category_label("CN(c1ccccc1)c1cncc(N2CC3CC(C2)N3)c1")
"Not fulfilled"
>>> category_label("FC(F)(F)c1ccc(Nc2ccc(N3CC4CC(C3)N4)cn2)cc1")
"Fulfilled"
>>> category_label("COc1ccc(Nc2ccc(N3CC4CC(C3)N4)nn2)cc1")
"Not fulfilled"
>>> category_label("Clc1ccc(Nc2ccc(N3CC4CC(C3)N4)cn2)cc1")
"Not fulfilled"

* * *

- Organism: Rattus norvegicus
- Measurement Protocol: Selectivity ratio of Ki for alpha7 nAChR in rat hippocampal membranes to Ki for alpha4beta2 nAChR in rat cortex membranes
- Format: cell membranes
Property: Ratio Ki

>>> observed("Fc1ccc(Nc2cncc(N3CC4CC(C3)N4)c2)cc1")
4850
>>> observed("Clc1cccc(Nc2cncc(N3CC4CC(C3)N4)c2)c1")
9680
>>> observed("FC(F)(F)c1ccc(Nc2ccc(N3CC4CC(C3)N4)nn2)cc1")
294
>>> observed("c1ccc(Nc2cncc(N3CC4CC(C3)N4)c2)cc1")
333
>>> observed("COc1ccc(Nc2ccc(N3CC4CC(C3)N4)nn2)cc1")
87
>>> observed("CN(c1ccccc1)c1ccc(N2CC3CC(C2)N3)nn1")
71
>>> observed("FC(F)(F)c1ccc(Nc2cncc(N3CC4CC(C3)N4)c2)cc1")
499
>>> observed("Clc1ccc(Nc2ccc(N3CC4CC(C3)N4)nn2)cc1")
191
>>> observed("Fc1ccc(Nc2ccc(N3CC4CC(C3)N4)cn2)cc1")
546
>>> observed("FC(F)(F)c1ccc(Nc2ccc(N3CC4CC(C3)N4)cn2)cc1")
413
>>> observed("O=[N+]([O-])c1ccc(Nc2cncc(N3CC4CC(C3)N4)c2)cc1")
10700
>>> observed("Clc1ccc(Nc2ccc(N3CC4CC(C3)N4)cn2)cc1")
330

* * *

molecules and their reported pKi
- System Under Test: Neuronal acetylcholine receptor; alpha3/beta4 (Homo sapiens, UniProt P30926+P32297)
- Sequence (P30926 whole entry): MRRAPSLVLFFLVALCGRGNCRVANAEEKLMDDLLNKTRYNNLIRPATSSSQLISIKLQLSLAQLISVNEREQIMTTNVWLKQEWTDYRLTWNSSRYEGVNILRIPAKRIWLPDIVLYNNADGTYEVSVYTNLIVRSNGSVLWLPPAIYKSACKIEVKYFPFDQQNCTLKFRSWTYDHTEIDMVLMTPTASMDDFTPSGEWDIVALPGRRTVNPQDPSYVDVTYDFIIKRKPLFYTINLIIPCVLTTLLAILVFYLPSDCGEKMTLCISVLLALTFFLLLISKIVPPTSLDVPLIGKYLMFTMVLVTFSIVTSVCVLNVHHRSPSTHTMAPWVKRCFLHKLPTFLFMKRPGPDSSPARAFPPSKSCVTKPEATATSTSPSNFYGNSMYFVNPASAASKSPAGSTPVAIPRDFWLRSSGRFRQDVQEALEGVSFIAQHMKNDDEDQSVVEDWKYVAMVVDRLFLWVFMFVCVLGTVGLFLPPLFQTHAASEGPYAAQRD
- Sequence (P32297 whole entry): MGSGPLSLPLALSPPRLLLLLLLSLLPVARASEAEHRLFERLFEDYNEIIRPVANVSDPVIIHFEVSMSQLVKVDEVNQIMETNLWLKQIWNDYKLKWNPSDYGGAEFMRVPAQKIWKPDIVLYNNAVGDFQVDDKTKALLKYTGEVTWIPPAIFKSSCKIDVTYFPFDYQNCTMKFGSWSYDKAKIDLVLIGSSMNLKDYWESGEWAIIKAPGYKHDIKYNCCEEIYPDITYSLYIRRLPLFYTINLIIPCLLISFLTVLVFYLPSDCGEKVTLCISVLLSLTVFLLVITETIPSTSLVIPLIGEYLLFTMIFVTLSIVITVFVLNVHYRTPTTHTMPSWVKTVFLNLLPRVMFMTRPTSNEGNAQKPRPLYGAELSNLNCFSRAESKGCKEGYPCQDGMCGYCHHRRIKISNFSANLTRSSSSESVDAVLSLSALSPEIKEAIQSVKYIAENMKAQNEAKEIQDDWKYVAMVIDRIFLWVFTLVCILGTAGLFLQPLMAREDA
- Measurement Protocol: Displacement of [3H]epibatidine from human alpha3beta4 nAChR expressed in HEK293 cell membranes
pKi: −log10 of the molar value.
Property: pKi

>>> observed("FC(F)(F)c1ccc(Nc2cncc(N3CC4CC(C3)N4)c2)cc1")
8.99
>>> observed("Clc1cccc(Nc2ccc(N3CC4CC(C3)N4)cn2)c1")
8.32
>>> observed("Fc1ccc(Nc2cncc(N3CC4CC(C3)N4)c2)cc1")
8.90
>>> observed("Clc1cccc(Nc2cncc(N3CC4CC(C3)N4)c2)c1")
6.53
>>> observed("FC(F)(F)c1ccc(Nc2ccc(N3CC4CC(C3)N4)nn2)cc1")
6.94
>>> observed("Fc1ccc(Nc2ccc(N3CC4CC(C3)N4)cn2)cc1")
7.89
>>> observed("Clc1ccc(Nc2ccc(N3CC4CC(C3)N4)cn2)cc1Cl")
7.39
>>> observed("Oc1ccc(Nc2cncc(N3CC4CC(C3)N4)c2)cc1")
9.01
>>> observed("Oc1ccc(Nc2ccc(N3CC4CC(C3)N4)cn2)cc1")
6.78
>>> observed("COc1ccc(Nc2cncc(N3CC4CC(C3)N4)c2)cc1")
8.66
>>> observed("COc1ccc(Nc2ccc(N3CC4CC(C3)N4)cn2)cc1")
8.04
>>> observed("c1ccc(Nc2cncc(N3CC4CC(C3)N4)c2)cc1")
9.10

* * *

- System Under Test: Neuronal acetylcholine receptor subunit alpha-7 (Rattus norvegicus, UniProt Q05941)
- Sequence (Q05941 whole entry): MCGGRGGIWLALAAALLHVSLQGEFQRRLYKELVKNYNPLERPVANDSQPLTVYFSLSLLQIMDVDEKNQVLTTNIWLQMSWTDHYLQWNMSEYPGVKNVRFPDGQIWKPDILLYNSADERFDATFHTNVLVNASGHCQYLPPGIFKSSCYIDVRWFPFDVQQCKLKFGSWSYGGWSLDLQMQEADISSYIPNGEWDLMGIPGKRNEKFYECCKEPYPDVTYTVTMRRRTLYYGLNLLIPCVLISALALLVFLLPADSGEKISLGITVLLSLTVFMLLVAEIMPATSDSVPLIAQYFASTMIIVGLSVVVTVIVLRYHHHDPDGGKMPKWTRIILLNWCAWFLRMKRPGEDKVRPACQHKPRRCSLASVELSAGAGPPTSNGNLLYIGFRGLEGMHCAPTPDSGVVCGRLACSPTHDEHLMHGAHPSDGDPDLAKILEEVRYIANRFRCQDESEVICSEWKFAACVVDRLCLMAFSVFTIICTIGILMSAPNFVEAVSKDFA
- Measurement Protocol: Displacement of [125I]alpha-bungarotoxin from alpha7 nAChR in rat hippocampal membranes
- Format: cell membranes
As shown below, each of these compounds has a reported Ki value.
Property: Ki (nM)

>>> observed("Clc1cccc(Nc2ccc(N3CC4CC(C3)N4)cn2)c1")
3300
>>> observed("COc1ccc(Nc2cncc(N3CC4CC(C3)N4)c2)cc1")
837
>>> observed("Fc1ccc(Nc2ccc(N3CC4CC(C3)N4)nn2)cc1")
111000
>>> observed("Cc1ccc(Nc2ccc(N3CC4CC(C3)N4)nn2)cc1")
21700
>>> observed("Oc1ccc(Nc2cncc(N3CC4CC(C3)N4)c2)cc1")
2100
>>> observed("Fc1ccc(Nc2cncc(N3CC4CC(C3)N4)c2)cc1")
441
>>> observed("Clc1cccc(Nc2ccc(N3CC4CC(C3)N4)nn2)c1")
41800
>>> observed("Oc1ccc(Nc2ccc(N3CC4CC(C3)N4)cn2)cc1")
2200
>>> observed("c1ccc(Nc2ccc(N3CC4CC(C3)N4)nn2)cc1")
10400
>>> observed("Clc1ccc(Nc2ccc(N3CC4CC(C3)N4)nn2)cc1Cl")
5100
>>> observed("Clc1ccc(Nc2cncc(N3CC4CC(C3)N4)c2)cc1Cl")
1900
>>> observed("FC(F)(F)c1ccc(Nc2ccc(N3CC4CC(C3)N4)cn2)cc1")
235

* * *

Entries and their Ratio Ki
- Measurement Protocol: Selectivity ratio of Ki for human alpha3beta4 nAChR expressed in HEK293 cell membranes to Ki for alpha4beta2 nAChR in rat cortex membranes
- Format: cell-based
Property: Ratio Ki

>>> observed("O=[N+]([O-])c1ccc(Nc2cncc(N3CC4CC(C3)N4)c2)cc1")
30
>>> observed("FC(F)(F)c1ccc(Nc2ccc(N3CC4CC(C3)N4)nn2)cc1")
17
>>> observed("Fc1ccc(Nc2ccc(N3CC4CC(C3)N4)cn2)cc1")
5
>>> observed("FC(F)(F)c1ccc(Nc2ccc(N3CC4CC(C3)N4)cn2)cc1")
1
>>> observed("Oc1ccc(Nc2ccc(N3CC4CC(C3)N4)cn2)cc1")
23

* * *

- System Under Test: Neuronal acetylcholine receptor; alpha4/beta2 (Homo sapiens, UniProt P17787+P43681)
- Sequence (P17787 whole entry): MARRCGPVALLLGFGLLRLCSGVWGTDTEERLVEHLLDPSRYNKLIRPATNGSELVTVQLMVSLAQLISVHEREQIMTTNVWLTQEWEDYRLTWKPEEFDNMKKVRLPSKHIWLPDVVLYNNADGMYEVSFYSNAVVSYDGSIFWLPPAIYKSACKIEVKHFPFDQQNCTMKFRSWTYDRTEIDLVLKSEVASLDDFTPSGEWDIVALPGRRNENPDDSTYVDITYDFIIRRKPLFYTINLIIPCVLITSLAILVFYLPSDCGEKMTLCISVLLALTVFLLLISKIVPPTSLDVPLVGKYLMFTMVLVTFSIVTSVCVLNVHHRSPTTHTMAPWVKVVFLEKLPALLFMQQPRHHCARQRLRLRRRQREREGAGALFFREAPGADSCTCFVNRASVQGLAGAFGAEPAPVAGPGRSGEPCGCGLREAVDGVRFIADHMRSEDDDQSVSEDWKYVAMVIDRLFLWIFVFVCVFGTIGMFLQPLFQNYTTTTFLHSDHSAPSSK
- Sequence (P43681 whole entry): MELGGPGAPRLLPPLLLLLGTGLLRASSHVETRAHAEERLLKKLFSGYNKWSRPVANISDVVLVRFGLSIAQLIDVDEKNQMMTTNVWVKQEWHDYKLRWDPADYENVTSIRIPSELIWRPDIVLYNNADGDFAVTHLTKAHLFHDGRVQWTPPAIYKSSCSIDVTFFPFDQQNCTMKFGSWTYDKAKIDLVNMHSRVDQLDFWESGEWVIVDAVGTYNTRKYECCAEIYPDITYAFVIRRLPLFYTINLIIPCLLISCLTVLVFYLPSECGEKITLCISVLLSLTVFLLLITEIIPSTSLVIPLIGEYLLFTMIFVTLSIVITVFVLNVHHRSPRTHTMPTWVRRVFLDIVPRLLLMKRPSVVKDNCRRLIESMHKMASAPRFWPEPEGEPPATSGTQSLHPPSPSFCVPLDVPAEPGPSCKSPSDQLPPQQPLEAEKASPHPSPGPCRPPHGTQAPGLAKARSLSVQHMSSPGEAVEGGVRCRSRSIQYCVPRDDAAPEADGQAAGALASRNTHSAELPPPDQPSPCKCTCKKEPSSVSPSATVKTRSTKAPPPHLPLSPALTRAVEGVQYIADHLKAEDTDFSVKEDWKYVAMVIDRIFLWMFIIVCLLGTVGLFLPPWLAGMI
- Measurement Protocol: Agonist activity at alpha4beta2 nAChR (unknown origin)
pKi: −log10 of the molar value.
Mark -1 for pKi values under 10, and 1 for everything at or above.

>>> category_label("Clc1ccc(N2CC3CCC(C2)N3)cn1")
-1
>>> category_label("Clc1ccc(N2CC3CC2CN3)cn1 (stereo unspecified)")
1
>>> category_label("c1cncc(N2CC3CCC(C2)N3)c1")
-1
>>> category_label("Clc1ccc(N2CC3CCC(C2)N3)nn1")
-1
>>> category_label("c1cncc(N2C[C@H]3C[C@@H]2CN3)c1")
1

* * *

Reported Ratio Ki values for the following compounds.
- Measurement Protocol: Selectivity ratio of Ki for human alpha3beta4 nAChR expressed in HEK293 cell membranes to Ki for alpha4beta2 nAChR in rat cortex membranes
- Assay type: cell-based
Property: Ratio Ki

>>> observed("Clc1cccc(Nc2ccc(N3CC4CC(C3)N4)cn2)c1")
2
>>> observed("c1ccc(Nc2cncc(N3CC4CC(C3)N4)c2)cc1")
10
>>> observed("COc1ccc(Nc2cncc(N3CC4CC(C3)N4)c2)cc1")
37
>>> observed("Cc1ccc(Nc2cncc(N3CC4CC(C3)N4)c2)cc1")
9
>>> observed("Oc1ccc(Nc2cncc(N3CC4CC(C3)N4)c2)cc1")
3
>>> observed("COc1ccc(Nc2ccc(N3CC4CC(C3)N4)cn2)cc1")
1
>>> observed("FC(F)(F)c1ccc(Nc2cncc(N3CC4CC(C3)N4)c2)cc1")
3
>>> observed("Clc1ccc(Nc2cncc(N3CC4CC(C3)N4)c2)cc1")
10
>>> observed("Clc1cccc(Nc2cncc(N3CC4CC(C3)N4)c2)c1")
2360
>>> observed("Fc1ccc(Nc2cncc(N3CC4CC(C3)N4)c2)cc1")
14
>>> observed("Clc1ccc(Nc2ccc(N3CC4CC(C3)N4)cn2)cc1Cl")
18
>>> observed("O=[N+]([O-])c1ccc(Nc2ccc(N3CC4CC(C3)N4)cn2)cc1")
14

* * *

- Organism: Rattus norvegicus
- Measurement Protocol: Selectivity ratio of Ki for alpha7 nAChR in rat hippocampal membranes to Ki for alpha4beta2 nAChR in rat cortex membranes
- Format: cell membranes
Property: Ratio Ki

>>> observed("c1ccc(Nc2ccc(N3CC4CC(C3)N4)cn2)cc1")
179
>>> observed("Clc1ccc(Nc2cncc(N3CC4CC(C3)N4)c2)cc1Cl")
1520
>>> observed("COc1ccc(Nc2ccc(N3CC4CC(C3)N4)cn2)cc1")
412
>>> observed("O=[N+]([O-])c1ccc(Nc2ccc(N3CC4CC(C3)N4)nn2)cc1")
80
>>> observed("Clc1ccc(Nc2ccc(N3CC4CC(C3)N4)cn2)cc1Cl")
887
>>> observed("CN(c1ccccc1)c1cncc(N2CC3CC(C2)N3)c1")
154
